Value source: paper PMC4579641

# Test system: Mycobacterium bovis AN5
# Experiment summary: microbe, parasite or virus in culture
# Type: cell-based
# Experimental conditions: Mycobacterium tuberculosis variant bovis, AN5, 168 h, read-out: Antimycobacterial activity, M. bovis MIC
What MIC was measured for each of the following?
Reply numerically in µg/mL, unit not repeated.

Entry under test: C=CCc1ccc(OC)cc1 [Estragole] . Its MIC was 25

Entry under test: CO[C@H]1/C=C/O[C@@]2(C)Oc3c(C)c(O)c4c(O)c(c(/C=N/N5CCN(C)CC5)c(O)c4c3C2=O)NC(=O)/C(C)=C\C=C\[C@H](C)[C@H](O)[C@@H](C)[C@@H](O)[C@@H](C)[C@H](OC(C)=O)[C@@H]1C [Rifampicin, reference compound] . Its MIC was 0.5

Entry under test: CC(C)c1ccc(C=O)cc1 [Cuminaldehyde] . Its MIC was 20.8

Entry under test: Cc1ccc(C(C)C)c(O)c1 [Thymol] . Its MIC was 2.02

Entry under test: Cc1ccc(C(C)C)cc1 [p-Cymene] . Its MIC was 91.7

Entry under test: Cc1ccc(C(C)C)cc1O [Carvacrol] . Its MIC was 5.2
